Give pKd for every item shown.
molecular target: T1, human CD8αα homodimer, recombinant protein (Acro Biosystems) (human, UniProt P01732 22-182); test: BLI steady state, whole hIgG1-LALAPA antibody on CD8α-His (Ni-NTA sensor), 30 °C
T1 construct: also called CD8αα antigen; biotinylated CD8α recombinant protein (CDA-H82E3)
T1 sequence (P01732 22-182 limits assumed): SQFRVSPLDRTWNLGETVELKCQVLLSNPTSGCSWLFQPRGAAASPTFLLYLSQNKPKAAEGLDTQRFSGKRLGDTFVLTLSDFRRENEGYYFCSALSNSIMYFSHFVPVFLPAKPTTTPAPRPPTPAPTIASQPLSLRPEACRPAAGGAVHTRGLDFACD
Scale note: pKd = -log10(concentration in M).

Dear colleague, please send me the reported pKd for CBD1037-hIgG1-LALAPA (antibody, V domains shown, also called h1017-H4/L2 whole antibody) VH: QVQLVQSGAEVKKPGASVKVSCKASRYTFTDYNLHWVRQAPGQGLEWMGFIYPYNGGTGYAQKFQGRVTMTVDYSTSTAYMELSSLRSEDTAVYYCARDHRYNEGVSFDYWGQGTTVTVSS VL: DIQLTQSPSSLSASVGDRATITCRASESVDGFGNSFMNWYQQKPGKAPKLLIYLASNLESGVPSRFSGSGSGTDFTLTISSVQPEDFATYYCQQNNEDPYTFGQGTKLEIKR when you can.
8.63

Dear colleague, please send me the reported pKd for CBD1032 whole antibody, Fc-silenced human IgG1 (LALAPA) (antibody, V domains shown) VH: QVQLVQSGAEVKKPGASVKVSCKASRYTFTDYNLHWVRQAPGQGLEWMGFIYPYNGGTGYAQKFQGRVTMTRDTSTSTVYMELSSLRSEDTAVYYCARDHRYNEGVSFDYWGQGTTVTVSS VL: DIQMTQSPSSLSASVGDRVTITCRASESVDGFGNSFMNWYQQKPGKAPKLLIYLASNLESGVPSRFSGSGSGTDFTLTISSLQPEDFATYYCQQNNEDPYTFGQGTKLEIKR when you can.
8.85

Dear colleague, please send me the reported pKd for CBD1035 whole antibody, Fc-silenced human IgG1 (LALAPA) (antibody, V domains shown) VH: QVQLVQSGAEVKKPGASVKISCKASRYTFTDYNLHWVRQAPGQGLEWIGFIYPYNGGTGYAQKFQGRATLTVDTSTSTAYMELSSLRSEDTAVYYCARDHRYNEGVSFDYWGQGTTLTVSS VL: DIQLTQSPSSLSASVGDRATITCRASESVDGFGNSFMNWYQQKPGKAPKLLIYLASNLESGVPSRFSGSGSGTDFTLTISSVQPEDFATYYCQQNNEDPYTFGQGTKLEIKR when you can.
8.58

Dear colleague, please send me the reported pKd for CBD1034 whole antibody, Fc-silenced human IgG1 (LALAPA) (antibody, V domains shown) VH: QVQLVQSGAEVKKPGASVKVSCKASRYTFTDYNLHWVRQAPGQGLEWMGFIYPYNGGTGYAQKFQGRVTMTVDTSTSTAYMELSSLRSEDTAVYYCARDHRYNEGVSFDYWGQGTTVTVSS VL: DIQLTQSPSSLSASVGDRATITCRASESVDGFGNSFMNWYQQKPGKAPKLLIYLASNLESGVPSRFSGSGSRTDFTLTISSVQPEDFATYYCQQNNEDPYTFGQGTKLEIKR when you can.
8.33

Dear colleague, please send me the reported pKd for CBD1036-hIgG1-LALAPA (antibody, V domains shown, also called h1017-H3/L3 whole antibody) VH: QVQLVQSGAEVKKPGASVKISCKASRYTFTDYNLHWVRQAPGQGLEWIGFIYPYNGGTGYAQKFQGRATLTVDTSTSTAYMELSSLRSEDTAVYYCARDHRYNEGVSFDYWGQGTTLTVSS VL: DIQLTQSPSSLSASVGDRATITCRASESVDGFGNSFMNWYQQKPGKAPKLLIYLASNLESGVPSRFSGSGSRTDFTLTISSVQPEDFATYYCQQNNEDPYTFGQGTKLEIKR when you can.
8.29

Value source: patent US20250195685A1
